Test system: A498 renal
measurement_notes: NCI tumour cell line growth inhibition, 48 h
Please provide measured TGI for the entries that follow.
Give the value, in units of µM, as a plain number.

Lab note: need TGI with A498 renal for entry S=c1sscc1N1CCSc2ssc(=S)c21 , please look it up.
77.4

Lab note: need TGI with A498 renal for entry CCOC(=O)C(C(=O)OCC)C(NC(=O)Nc1cc(C(F)(F)F)ccc1OC)(C(F)(F)F)C(F)(F)F , please look it up.
31.9

Lab note: need TGI with A498 renal for entry COc1ccc(/C=C/C(=O)/C=C(/C=C/c2ccc(OC)c(OC)c2OC)OB(F)F)c(OC)c1OC , please look it up.
10.2

Lab note: need TGI with A498 renal for entry CC1=C(C(=O)NCc2ccccc2)C(c2ccccc2O)C(C(=O)NCc2ccccc2)=C(C)N1 , please look it up.
33.9

Lab note: need TGI with A498 renal for entry COC(=O)c1c(OC(C)=O)ccc2c1c1cc3ccccc3c(OC(C)=O)c1n2C , please look it up.
46

###

Test system: NCI-H23 lung
measurement_notes: NCI tumour cell line growth inhibition, 48 h
Where a SMILES comes first, the peptide text is derived from it. [ ]: non-standard residue; d: D form. The star is where a group is joined. ξ: configuration not given here. dIva = CC[C@@](C)(N)C(=O)O; Aib = CC(C)(N)C(=O)O; ξP = O=C(O)C1CCCN1; βAla = NCCC(=O)O; X5 = OCN*
Give yes (1) when the value for TGI is at least 6 µM. Give no (0) when it is less.

Check if TGI >= 6 µM (inclusive). Item: N#C/C=C\c1ccc(-c2cc(C(F)(F)F)cc(C(F)(F)F)c2)o1
yes (1)

Check if TGI >= 6 µM (inclusive). Item: CCCC(CCC)C(=O)O
yes (1)

Check if TGI >= 6 µM (inclusive). Item: COc1cccc(-c2cc(=O)c3cc(N4CCCC4)ccc3[nH]2)c1
no (0)

Check if TGI >= 6 µM (inclusive). Item: Cc1c(C(=O)Nc2ccc(Cl)cc2)nc(N)nc1-c1cccc(Cl)c1
yes (1)

Check if TGI >= 6 µM (inclusive). Item: CC(=O)Nc1ccc2c3c(cc(O)c2c1)N(C(=O)CCCCCC(=O)Nc1ccc2c4c(cc(O)c2c1)N(C(=O)OC(C)(C)C)CC4CCl)CC3CCl (configuration not stated)
no (0)

Check if TGI >= 6 µM (inclusive). Item: COc1cc(N(CCC#N)CCC#N)ccc1/C(N=Nc1cccc(C)c1)=N\NC(=O)c1ccc(C)cc1
yes (1)

Check if TGI >= 6 µM (inclusive). Item: Nc1c(O)c(C(=O)O)cc2ccccc12
yes (1)

Check if TGI >= 6 µM (inclusive). Item: C=C(C)COC(=O)COCC(=O)OCC(=C)C
yes (1)

Check if TGI >= 6 µM (inclusive). Item: CN1C(=O)C(C)(C)Oc2c(-c3cn(C)c(=O)c4[nH]ccc34)cc(S(C)(=O)=O)cc21
yes (1)

Check if TGI >= 6 µM (inclusive). Item: CCNC(CCCC(NCC)P(=O)(O)O)P(=O)(O)O (configuration not stated)
yes (1)

Check if TGI >= 6 µM (inclusive). Item: COc1ccc2oc3c(ccc[n+]3C)c(=O)c2c1
yes (1)

Check if TGI >= 6 µM (inclusive). Item: CC(C)[Si](OC1=CCC[C@H]2NC(=O)[C@@H](Cc3ccc([N+](=O)[O-])cc3)[C@@]12C)(C(C)C)C(C)C
yes (1)

Check if TGI >= 6 µM (inclusive). Item: C[C@H](c1ccc(Cl)cc1[N+](=O)[O-])N1C(=O)c2cc(I)ccc2NC(=O)[C@H]1c1ccc(Cl)cc1
yes (1)

Check if TGI >= 6 µM (inclusive). Item: Cc1cn(C2CC(O)C(Cn3nncc3Cn3ccc(=O)[nH]c3=O)O2)c(=O)[nH]c1=O (configuration not stated)
yes (1)

Check if TGI >= 6 µM (inclusive). Item: CCN(CC)c1ccc(N=C2C=CC(=C(C#N)C#N)c3ccccc32)c(C)c1
no (0)

Check if TGI >= 6 µM (inclusive). Item: Nc1cc(N)c2nc(-c3ccccc3)c(Oc3ccc(Cl)c(Cl)c3)nc2c1
yes (1)

Check if TGI >= 6 µM (inclusive). Item: CN1CCN(Cc2ccc(NC(=O)c3[nH]ncc3Nc3cc(OC4CCCC4)ncn3)cc2)CC1
yes (1)

Check if TGI >= 6 µM (inclusive). Item: CC(=O)Nc1nc(C)c(-c2cc3c(c(S(C)(=O)=O)c2)C(=O)N([C@@H](C)C2CC2)C3)s1
yes (1)

Check if TGI >= 6 µM (inclusive). Item: O=Cc1ccc2[nH]c(=O)oc2c1
yes (1)

Check if TGI >= 6 µM (inclusive). Item: O=C1C=C(OCC=C(Cl)Cl)C(=O)c2ccccc21
yes (1)

Check if TGI >= 6 µM (inclusive). Item: O=C(Nc1ccc(N2CCNCC2)cn1)c1[nH]ncc1Nc1ncnc2sc3c(c12)CCC3
yes (1)

Check if TGI >= 6 µM (inclusive). Item: Nc1ccc2c(c1)S(=O)(=O)c1cc(N)ccc1-2
yes (1)

Check if TGI >= 6 µM (inclusive). Item: CCC12C=CCN3CCC4(C(=C(C(=O)OC)C1)Nc1ccccc14)[C@H]32 (some centres not stated)
yes (1)

Check if TGI >= 6 µM (inclusive). Item: C/C=C1/C(=O)O[C@]23C=C[C@@H]4C(C(=O)OC)=CO[C@H](O[C@@H]12)[C@@H]43
no (0)

Check if TGI >= 6 µM (inclusive). Item: NS(=O)(=O)c1ccc(N=Nc2c(=O)[nH]c3ccc4[nH]cccc4c23)cc1
no (0)

Check if TGI >= 6 µM (inclusive). Item: S=c1sscc1N1CCSc2ssc(=S)c21
yes (1)

Check if TGI >= 6 µM (inclusive). Item: COc1ccc(-c2cc3c(N)ncnc3o2)cc1
yes (1)

Check if TGI >= 6 µM (inclusive). Item: CCCNC(=O)Nc1ccc2c(c1)Cc1cc(N(CCCl)CCCl)ccc1-2
yes (1)

Check if TGI >= 6 µM (inclusive). Item: Cc1cc2nc3c(C#N)c4c(c(Nc5ccc(Cl)cc5)n3c2cc1C)CCC4
yes (1)

Check if TGI >= 6 µM (inclusive). Item: NC(=O)N/N=C/c1ccccc1O
yes (1)

Check if TGI >= 6 µM (inclusive). Item: Nc1nc2c(ncn2CC(CO)CC(c2ccccc2)P(=O)(O)O)c(=O)[nH]1 (configuration not stated)
yes (1)

Check if TGI >= 6 µM (inclusive). Item: COc1cc(C2S/C(=C/c3ccccc3)C(=O)N2c2ccccn2)cc(OC)c1OC (configuration not stated)
yes (1)

Check if TGI >= 6 µM (inclusive). Item: COc1cc[nH]c1/C=C1\C(=O)Nc2ccc([N+](=O)[O-])c(N3CC[C@@H](O)C3)c21
no (0)

Check if TGI >= 6 µM (inclusive). Item: CC1=C(C(=O)NCc2ccccc2)C(c2ccccc2O)C(C(=O)NCc2ccccc2)=C(C)N1
yes (1)

Check if TGI >= 6 µM (inclusive). Item: CC[C@@](C)(NC(=O)[C@H](C)NC(=O)CCNC(=O)C(C)(C)NC(=O)[C@H](C)NC(=O)[C@@H]1CCCN1C(=O)[C@@](C)(CC)NC(=O)[C@H](Cc1ccccc1)NC(=O)C1CCCN1C(=O)C(C)(C)NC(=O)C1CCCN1C(=O)C(C)(C)NC(C)=O)C(=O)NCCC(=O)N[C@@H](CC(C)C)C(=O)NC(C)(C)C(=O)NCCC(=O)N[C@@H](CC(C)C)C(=O)NC(C)(C)C(=O)NC(C)(C)C(=O)N[C@@H](CC(C)C)C(=O)NCCC(=O)NCO (some centres not stated) (Ac-[Aib][ξP][Aib][ξP]F[dIva]PA[Aib][βAla]A[dIva][βAla]L[Aib][βAla]L[Aib][Aib]L[βAla]-X5)
no (0)

Check if TGI >= 6 µM (inclusive). Item: O=C1/C(=C/c2cccc(F)c2)CN(C(=O)C(Cl)Cl)C/C1=C\c1cccc(F)c1
no (0)

Check if TGI >= 6 µM (inclusive). Item: O=[N+]([O-])c1ccc2nc(=S)[nH]n2c1
yes (1)

###

Test system: K-562 leukemia
measurement_notes: NCI tumour cell line growth inhibition, 48 h
Numbered stars: 1 amine (or outer) side, 2 acyl side, 3 side chain; on linkers, the order of the positions; unused ones are H or OH. Bridge positions count the residues as written; N and C are the ends. Square brackets hold non-standard residues; d marks the D form. Peptide text beside a SMILES is read from it. I, II: the chains in the order shown. Actinocin(1to9) = Cc1c2oc3c(C)ccc(C(=O)[*:2])c3nc-2c(C(=O)[*:1])c(N)c1=O; NMeV = CN[CH](C(=O)O)C(C)C; Sar = CNCC(=O)O
property: TGI

TGI for Cc1c(C(=O)Nc2ccc(Cl)cc2)nc(N)nc1-c1cccc(Cl)c1 ?
> 100 µM

TGI for COc1ccc(/C=C/C(=O)/C=C(/C=C/c2ccc(OC)c(OC)c2OC)OB(F)F)c(OC)c1OC ?
> 100 µM

TGI for CN/N=C(/CC(=O)c1sc(NNC(C)=O)nc1C)C(=O)Nc1ccc(OC)cc1OC ?
> 100 µM

TGI for CCC(C)C1NC(=O)C(NC(=O)c2c3nc4c(C(=O)NC5C(=O)NC(C(C)C)C(=O)N6CCCC6C(=O)N(C)CC(=O)N(C)C(C(C)C)C(=O)OC5C)ccc(C)c4oc-3c(C)c(=O)c2N)C(C)OC(=O)C(C(C)C)N(C)C(=O)CN(C)C(=O)C2CCCN2C1=O (stereo unspecified) (I: TIP[Sar][NMeV] / II: TVP[Sar][NMeV]; ester I:1-I:C, II:1-II:C; linker I:N-II:N via Actinocin(1to9); configuration not given here) ?
0.105 µM

TGI for CCCCn1c2c(n(CCCC)c1=[Se])-c1c(n(CCCC)c(=[Se])n1CCCC)S[Se][Se]S2 ?
> 66.9 µM

TGI for COc1c(OC2OC(CO)C(O)C(O)C2O)cc2c(c1OC)-c1ccc(OC)c(=O)cc1[C@@H](NC(C)=O)CC2 (stereo partly specified) ?
> 100 µM
